SYSTEM UNDER TEST: human P2X2/3 receptors (Homo sapiens, UniProt P56373+Q9UBL9)
Construct: expressed in transfected cells; host or cells: human astrocytoma 1321N1 (1312N1 [sic])
EXPERIMENTAL PROTOCOL: Intracellular calcium measurement, antagonist activity at human P2X2/3 receptors (hP2X23 1321N1), Fluo8
Format: cell-based
CONDITION CONTEXT: ratio of column 4) hP2X2/3 to column 3) hP2X3, 1321N1
# hP2X23/hP2X3* Selectivity (1321N1) listing for each entry below

[[record]]
compound = "COC[C@H](C)N1Cc2c(n(CC(=O)Nc3ccc(F)cn3)c3cc(Cl)nn3c2=O)C1=O [Example 102]"
outcome_measure = "hP2X23/hP2X3* Selectivity (1321N1)"
val = ">278"

[[record]]
compound = "CCc1cc2n(CC(=O)Nc3ccc(F)cn3)c3c(c(=O)n2n1)CN(C[C@@H]1CCCO1)C3=O [Example 279]"
outcome_measure = "hP2X23/hP2X3* Selectivity (1321N1)"
val = ">85"

[[record]]
compound = "CC[C@H](C)N1Cc2c(n(CC(=O)Nc3ccc(C)cn3)c3cc(C(F)(F)F)nn3c2=O)C1=O [Example 21]"
outcome_measure = "hP2X23/hP2X3* Selectivity (1321N1)"
val = 53

[[record]]
compound = "CC(C)[C@H](C)N1Cc2c(n(CC(=O)Nc3ccc(F)cn3)c3cc(C(C)(C)C)nn3c2=O)C1=O [Example 10]"
outcome_measure = "hP2X23/hP2X3* Selectivity (1321N1)"
val = ">101"


Incoming: Give hP2X23/hP2X3* Selectivity (1321N1) only, for CC(C)N1Cc2c(n(CC(=O)Nc3ccc(F)cn3)c3cc(NCC4CC4)nn3c2=O)C1=O [Example 175] , using human P2X2/3 receptors (Homo sapiens, UniProt P56373+Q9UBL9) data.
Outgoing: 190

Incoming: State, for human P2X2/3 receptors (Homo sapiens, UniProt P56373+Q9UBL9), measured hP2X23/hP2X3* Selectivity (1321N1) of the compound listed here: CC(C)N1Cc2c(n(CC(=O)Nc3ccc(F)cn3)c3cc(C4=CCN(C(=O)OC(C)(C)C)C4)nn3c2=O)C1=O [Example 142]
Outgoing: 165

Incoming: State hP2X23/hP2X3* Selectivity (1321N1) (human P2X2/3 receptors (Homo sapiens, UniProt P56373+Q9UBL9)) of COCC(C)N1Cc2c(n(CC(=O)Nc3ccc(F)cn3)c3cc(C(=O)N(C)C)nn3c2=O)C1=O (racemic) [Example 140] .
Outgoing: >183

Incoming: Please look at CC(C)(C)c1cc2n(CC(=O)Nc3ccc(Cl)cn3)c3c(c(=O)n2n1)CN(C1CCC1)C3=O [Example 18] and tell me its recorded hP2X23/hP2X3* Selectivity (1321N1) on human P2X2/3 receptors (Homo sapiens, UniProt P56373+Q9UBL9).
Outgoing: 20

Incoming: # return hP2X23/hP2X3* Selectivity (1321N1) for CC[C@H](C)N1Cc2c(n(CC(=O)Nc3ccc(F)cn3)c3cc(C)nn3c2=O)C1=O [Example 53] , test system: human P2X2/3 receptors (Homo sapiens, UniProt P56373+Q9UBL9)
Outgoing: >110

###

SYSTEM UNDER TEST: human P2X3 receptor (Homo sapiens, UniProt P56373)
EXPERIMENTAL PROTOCOL: Intracellular calcium measurement, antagonist activity at human P2X3 receptors (hP2X3 1321N1), Fluo8
Format: cell-based
Design: expressed in transfected cells; host or cells: human astrocytoma 1321N1 (1312N1 [sic])
CONDITION CONTEXT: column 3); 1321N1 cells, human P2X3, Fluo8, agonist ATP at EC50
OUTCOME MEASURE: IC50

# annotated cases, reported IC50 shown
[[record]]
molecule = "Cc1cc2n(CC(=O)Nc3ccc(F)cn3)c3c(c(=O)n2n1)CN([C@H](C)C1CC1)C3=O [Example 55]"
val = "117 nM"

[[record]]
molecule = "CC(C)N1Cc2c(n(CC(=O)Nc3ccc(F)cn3)c3cc(C(=O)N4CCCCC4)nn3c2=O)C1=O [Example 183]"
val = "20 nM"

[[record]]
molecule = "COC[C@H](C)N1Cc2c(n(CC(=O)Nc3ccc(F)cn3)c3cc(Cl)nn3c2=O)C1=O [Example 102]"
val = "81 nM"


Incoming: // fetch IC50 given entry CCc1cc2n(CC(=O)Nc3ccc(F)cn3)c3c(c(=O)n2n1)CN(C[C@H]1CN(C(=O)OC(C)(C)C)CCO1)C3=O [Example 86]
Outgoing: 140 nM

Incoming: Return reported IC50. Input molecule: Cc1ccc(NC(=O)Cn2c3c(c(=O)n4nc(C(C)C)cc24)CN(C(C)C)C3=O)nc1 [Example 9]
Outgoing: 263 nM

Incoming: Name the recorded IC50 of the molecule listed here: C[C@H](O)CN1Cc2c(n(CC(=O)Nc3ccc(F)cn3)c3cc(C(C)(C)C)nn3c2=O)C1=O [Example 54]
Outgoing: 263 nM

Incoming: Dear colleague, please send me the reported IC50 for CC(C)[C@H](C)N1Cc2c(n(CC(=O)Nc3ccc(F)cn3)c3cc(C(C)(C)C)nn3c2=O)C1=O [Example 10] when you can.
Outgoing: 317 nM

Incoming: Quick one: give measured IC50 for COC[C@H](C)N1Cc2c(n(CC(=O)Nc3ccc(F)cn3)c3cc(-c4cc(C)ncc4C)nn3c2=O)C1=O [Example 158]
Outgoing: 3 nM

Incoming: Supply measured IC50 of COC[C@H](C)N1Cc2c(n(CC(=O)Nc3ccc(F)cn3)c3cc(C4CC4)nn3c2=O)C1=O [Example 101] in your reply.
Outgoing: 13 nM

Incoming: Tell me measured IC50 for CCc1cc2n(CC(=O)Nc3ccc(F)cn3)c3c(c(=O)n2n1)CN([C@@H](C)COC)C3=O [Example 46] please.
Outgoing: 36 nM

###

Listed molecules paired with reported log10 IC50
SYSTEM UNDER TEST: human P2X3 receptor (Homo sapiens, UniProt P56373)
Sequence (P56373 1-397): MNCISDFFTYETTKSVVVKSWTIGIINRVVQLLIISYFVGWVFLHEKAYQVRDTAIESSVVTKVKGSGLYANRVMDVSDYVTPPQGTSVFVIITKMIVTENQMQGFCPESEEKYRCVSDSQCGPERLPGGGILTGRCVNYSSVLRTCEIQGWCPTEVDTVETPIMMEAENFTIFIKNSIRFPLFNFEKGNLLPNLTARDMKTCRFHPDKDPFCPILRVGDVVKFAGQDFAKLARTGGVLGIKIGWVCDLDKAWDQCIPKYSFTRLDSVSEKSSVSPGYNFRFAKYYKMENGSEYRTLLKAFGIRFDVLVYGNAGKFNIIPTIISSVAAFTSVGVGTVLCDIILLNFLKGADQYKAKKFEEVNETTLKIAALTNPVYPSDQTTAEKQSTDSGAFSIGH
EXPERIMENTAL PROTOCOL: Intracellular calcium measurement, antagonist activity at human P2X3 receptors (hP2X3 1321N1), Fluo8
Format: cell-based
Parameters: expressed in transfected cells; host or cells: human astrocytoma 1321N1 (1312N1 [sic])
CONDITION CONTEXT: column 3); 1321N1 cells, human P2X3, Fluo8, agonist ATP at EC50
# values: log10(IC50), units nM

Below, 4 molecules whose answers are already recorded.
[[record]]
molecule = "COC[C@H](C)N1Cc2c(n(CC(=O)Nc3ccc(F)cn3)c3cc(-c4ccnc(C)c4)nn3c2=O)C1=O"
outcome_measure = "log10 IC50"
val = 0.78

[[record]]
molecule = "COCC(C)N1Cc2c(n(CC(=O)Nc3ccc(F)cn3)c3cc(Br)nn3c2=O)C1=O (stereo not shown)"
outcome_measure = "log10 IC50"
val = 1.76

[[record]]
molecule = "CC(C)N1Cc2c(n(CC(=O)Nc3ccc(F)cn3)c3cc(C(=O)N(C)CC4CC4)nn3c2=O)C1=O"
outcome_measure = "log10 IC50"
val = 0.70

[[record]]
molecule = "COC[C@H](C)N1Cc2c(n(CC(=O)Nc3ccc(F)cn3)c3cc(C(=O)N(C)C4CC4)nn3c2=O)C1=O"
outcome_measure = "log10 IC50"
val = 1.18


Incoming: Let me know recorded log10 IC50 for CC(C)N1Cc2c(n(CC(=O)Nc3ccc(F)cn3)c3cc(C(=O)NCC(F)F)nn3c2=O)C1=O , thanks.
Outgoing: 1.66

Incoming: Read the entry CC(C)N1Cc2c(n(CC(=O)Nc3ccc(F)cn3)c3cc(C4CCN(C(=O)OC(C)(C)C)C4)nn3c2=O)C1=O (racemic) and write its reported log10 IC50.
Outgoing: 1.59

Incoming: Name the recorded log10 IC50 of the molecule listed here: COC[C@H](C)N1Cc2c(n(CC(=O)Nc3ccc(F)cn3)c3cc(C(=O)N4CCC4)nn3c2=O)C1=O
Outgoing: 0.95
